# assay.procedure: NCI Yeast Anticancer Drug Screen. Data for the bub3 strain (AID 167)
# measurement.context: S. cerevisiae bub3 mutant strain, at 50.0 µM, stronger effect = higher value
About 79,000 compounds went through this panel and 15% of them were active in at least one assay; those are over-represented in the sample as a whole.
assay.endpoint: growth inhibition (%)
Please reply with the bare figure in % and do not write the unit itself.

Illustrative cases are given below, each with its answer.
compound | growth inhibition (%)
O=C(NNc1ccccc1)c1ccc(Cl)cc1Cl | 50.4
CC1=C(C(=O)O)CCc2ccccc21 | 15

Summary for this compound, O=C(Cc1nc2ccc(C(=O)c3ccccc3)cc2[nH]c1=O)C(=O)Nc1nc2ccccc2[nH]1 : growth inhibition is -4.25

Summary for this compound, CC(=O)OCCOC(C)=O : growth inhibition is 21.3

Summary for this compound, CCC(C)(S)CN (stereo not drawn) : growth inhibition is -11.4

Summary for this compound, O=C1C(=S)Nc2c(F)cccc21 : growth inhibition is 29.6

Summary for this compound, Cc1ccc(C(=O)NC(N)=O)cc1 : growth inhibition is -13.1

Summary for this compound, c1cc2c3c(cccc3c1)-c1nc3ccccc3nc1-2 : growth inhibition is 0.2

Summary for this compound, CC(=O)OCCn1c(C)nc2cc(Cl)c(Cl)cc21 : growth inhibition is 23.7

Summary for this compound, Clc1ccc2sc3c(c2c1)CCNC3 : growth inhibition is -26

Summary for this compound, Cc1ccc(C(C)C)c(OC2OC(C(=O)O)C(O)C(O)C2O)c1 (stereo not drawn) : growth inhibition is 10.9

Summary for this compound, Nc1ccc(S(=O)(=O)Nc2ccccn2)cc1 : growth inhibition is -20.2

Summary for this compound, COc1ccc(N=NC(=S)NNc2ccc(OC)cc2Oc2ccccc2)c(Oc2ccccc2)c1 : growth inhibition is -4.6

Summary for this compound, CCc1nnc(CC)n1N : growth inhibition is 16.4

Summary for this compound, c1ccc2c(c1)NC1C3(CCC4CCCCC241)SCCS3 (stereo not drawn) : growth inhibition is -2.1

Summary for this compound, COc1ccc(-c2ccccc2C(=O)O)cc1 : growth inhibition is -7.2

Summary for this compound, Cc1ccc(F)c(N)c1 : growth inhibition is 5.75

Summary for this compound, N#CSC1CCCCC1SC#N (stereo not drawn) : growth inhibition is -2.55

Summary for this compound, O=C1c2ccccc2C(=O)N1Cc1ccccc1 : growth inhibition is 0.45

Summary for this compound, CCCCCC/C(=C\c1ccc(O)cc1)C(=O)O : growth inhibition is 39.6

Summary for this compound, Cc1cccc(/C=N/NC(=S)N2CCCCCC2)n1 : growth inhibition is 92.2

Summary for this compound, COc1ccccc1-n1c(O)c(N=Nc2ccc(Cl)cc2)c(=O)n(-c2ccc(I)cc2)c1=S : growth inhibition is 1.25

Data provenance: PubChem BioAssay (NCI)
